Attribution: patent US8076329B2

Ki, human histamine H3 receptors (Homo sapiens, UniProt Q9Y5N1), per-entry values.
Where a name gives a salt, the structure may show the parent alone.
MEASURE: Ki (nM)

{"COMPOUND": "CCCC(O)(CCC)c1ccc(OCCCN2CCCCC2)cc1", "OBS_VALUE": 0.74}
{"COMPOUND": "CC1CCCN1CCCOc1ccc([C@H]2CC[C@H](O)CC2)cc1 (stereo partly drawn)", "OBS_VALUE": 0.83}
{"COMPOUND": "c1cc(-c2ccc(OCCCN3CCCCC3)cc2)ccc1OCCCN1CCCCC1", "OBS_VALUE": 0.1}
{"COMPOUND": "C[C@H]1CCCN(CCCOc2ccc(C3CCC(N4CCOCC4)CC3)cc2)C1 (single isomer, unassigned) [Example 41, dihydrochloride]", "OBS_VALUE": 0.13}
{"COMPOUND": "OC1(c2ccc(OCCCN3CCCCC3)cc2)CCCC1", "OBS_VALUE": 0.82}
{"COMPOUND": "CN1CCC(CCOCc2ccc(OCCCN3CCCCC3)cc2)CC1", "OBS_VALUE": 1.19}
{"COMPOUND": "c1cc(-c2ccc(OCCCN3CCCCC3)cc2)cs1", "OBS_VALUE": 0.88}
{"COMPOUND": "C[C@@H]1C[C@@H](C)CN(CCCOc2ccc(C3=NCCC3)cc2)C1 (relative stereo)", "OBS_VALUE": 0.43}
{"COMPOUND": "O=C(c1ccccc1)c1ccc(OCCCN2CCCCC2)cc1", "OBS_VALUE": 1.1}
